# Test system: MS2 coat protein
# protocol-summary: apparent KD of MS2 coat protein; designed switch direction (-1 OFF switch, 1 ON switch): -1; higher = weaker reporter binding
# condition-set: Eterna round: R95; input ligand: none
Decide using apparent KD of MS2 coat protein: a value greater than or equal to 30 nM is 1 (yes), a smaller one is 0 (no).

GGAAAGGUAGGAUAUACGAAGAAAAAGGGUAGAAGAAAAACACAUGAGGAUCACCCAUGUAGAAGGACCAAAGG [Mat - Exclusion 2 - Mod of my Tesla design - D2] (puzzle: Exclusion 2)
0 (no)
UAGAGACAUGAGGAUCACCCAUGUGAGGAUAUAGAGGAAGAUUGCGAGAGGGAGAGGACUAGAAGGCACAGUGA [JR_Exclu1_Sub034] (puzzle: Exclusion 1)
1 (yes)
AAGAAACAUGAGGAUCACCCAUGUGAGGAUAUGAAAAAGAAAAGAAAAGAAAGAAGAAUCAGAAGGCACAAAGU [salish99-ex1_r3_089] (puzzle: Exclusion 1)
1 (yes)
UUUAAUUUUUUUUUUUUACAAGCUUUUUGCUCGUCUUAUACAUGAGGAUCACCCAUGUAAAUGGGAGGUAAAUUAUC [JMF 71] (puzzle: Sensor v3, turn-off variant 2)
1 (yes)
GCGAAAGAAAACAGGUGAAACAUGAGGAUCACCCAUGUCCUCAUUUGCUCGUCUUAUAAGCUAUGCGAAAGCAUAGC [Mat - Sensor v3 - turn-off var 1 - Eli Mod - D52] (puzzle: Sensor v3, turn-off variant 1)
1 (yes)

Data request: Is the recorded value of apparent KD of MS2 coat protein equal to or greater than 30 nM for this sequence? CCGAAUAUGUAGGAUAUCGUAUCGGAAACGAUACGAGAAGGGCAAACAUGAGGAUCACCCAUGUUCCUUAACGG [Fiskers Ex 6 - 13] (puzzle: Exclusion 6)
Data returned: 0 (no)

Data request: Is the recorded value of apparent KD of MS2 coat protein equal to or greater than 30 nM for this sequence? AAGAAACGAGGAUAUACAGUUGAGUGAGGGAGGGUAGUGUUACAUGAGGAUCACCCAUGUAGAAGGCGUGAGAG [JR_Exclu2_Sub090] (puzzle: Exclusion 2)
Data returned: 0 (no)

Data request: Is the recorded value of apparent KD of MS2 coat protein equal to or greater than 30 nM for this sequence? CUGGUCCGAGGAUAUAUUUUGUGAUACAUGAGGAUCACCCAUGUAAUAAGAUGGAAGUAAAUAGAAGGCGGACUAG [Mat - Exclusion 5 - JL mod - D47] (puzzle: Exclusion 5)
Data returned: 1 (yes)
